- assay-target: δ-opioid receptor (hδ-OPR) (Homo sapiens, UniProt P41143)
- Sequence (P41143 whole entry): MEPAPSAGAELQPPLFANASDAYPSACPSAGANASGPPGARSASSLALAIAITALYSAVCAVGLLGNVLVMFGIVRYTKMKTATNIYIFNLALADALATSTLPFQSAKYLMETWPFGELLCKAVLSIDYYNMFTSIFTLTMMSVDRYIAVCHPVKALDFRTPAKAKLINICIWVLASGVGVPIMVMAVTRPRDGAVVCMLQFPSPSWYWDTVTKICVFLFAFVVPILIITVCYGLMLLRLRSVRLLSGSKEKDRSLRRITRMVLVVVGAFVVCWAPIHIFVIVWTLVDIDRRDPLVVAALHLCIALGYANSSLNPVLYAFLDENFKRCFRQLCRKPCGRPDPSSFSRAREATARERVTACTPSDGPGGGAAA
- protocol-details: hδ-OPR functional antagonist assay (Ca2+ mobilization, rat basophil leukemia cells)
- condition-notes: antagonist effect; mean ± SD, n = 3
- Excerpt: The in-house assay protocol and experimental conditions are reported in our previous reports. The functional effect of dieckol and PFF-A was characterized based on their modulation effect on cytosolic Ca^2+ ion mobilization using a fluorimetric detection method or by measuring their effect on cAMP modulation using homogeneous time-resolved fluorescence (HTRF) detection. […]
readout-label: IC50 (µM)
Give the number; µM is assumed, so skip it.

IC50 in this record for Oc1cc(O)cc(Oc2c(O)cc(O)c3c2Oc2c(O)cc(Oc4c(O)cc(Oc5c(O)cc(O)c6c5Oc5c(O)cc(O)cc5O6)cc4O)cc2O3)c1 [Dieckol, dieckol] : 80.5
